Ref: paper PMC8398847

# TEST DESCRIPTION: Solubility by isothermal saturation (shake flask) method
# Assay type: physicochemical
# EXPERIMENTAL PARAMETERS: buffer pH 7.4, pH 7.4, aqueous buffer, thermodynamic from solid, buffer pH 7.4; 303.15 K; read-out: solubility S·10^6
MEASURE: solubility (µM)
Answers are plain numbers, in µM.

Qu. Name the recorded solubility of the item C[C@@H](c1nc(-c2ccc(C#N)cc2)cs1)[C@](O)(Cn1cncn1)c1cc(F)ccc1F in your answer.
Ans. 10

###

# TEST DESCRIPTION: Partition experiment, 1-octanol/buffer pH 7.4, shake flask
# Type: physicochemical
# EXPERIMENTAL PARAMETERS: 1-octanol/buffer pH 7.4, pH 7.4, 1-octanol/buffer pH 7.4; 293.15 K; read-out: logP*O/B (mole fraction scale)
MEASURE: logP at 24 h
One number for each entry.

Qu. // Input: C[C@@H](c1nc(-c2ccc(C#N)cc2)cs1)[C@](O)(Cn1cncn1)c1cc(F)ccc1F [IVZ, Isavuconazole] . Output its logP at 24 h only.
Ans. 3.44

###

# TEST DESCRIPTION: Partition experiment, 1-octanol/buffer pH 7.4, shake flask
# Type: physicochemical
# EXPERIMENTAL PARAMETERS: 1-octanol/buffer pH 7.4, pH 7.4, 1-octanol/buffer pH 7.4; 303.15 K; read-out: logP*O/B (mole fraction scale)
MEASURE: logP at 24 h
Answers are plain numbers.

Qu. Provide measured logP at 24 h value, entry: C[C@@H](c1nc(-c2ccc(C#N)cc2)cs1)[C@](O)(Cn1cncn1)c1cc(F)ccc1F
Ans. 3.56

###

# TEST DESCRIPTION: Solubility by isothermal saturation (shake flask) method
# Assay type: physicochemical
# EXPERIMENTAL PARAMETERS: ethanol; 298.15 K; read-out: solubility
MEASURE: solubility
Provide a numeric answer, followed by its unit.

Qu. Let me know recorded solubility for C[C@@H](c1nc(-c2ccc(C#N)cc2)cs1)[C@](O)(Cn1cncn1)c1cc(F)ccc1F [IVZ, Isavuconazole] , thanks.
Ans. 180 mM

###

# TEST DESCRIPTION: Partition experiment, 1-octanol/buffer pH 7.4, shake flask
# Assay type: physicochemical
# EXPERIMENTAL PARAMETERS: 1-octanol/buffer pH 7.4, pH 7.4, 1-octanol/buffer pH 7.4; 313.15 K; read-out: logP*O/B (mole fraction scale)
MEASURE: logP at 24 h
Give bare numbers.

Qu. Consider the compound C[C@@H](c1nc(-c2ccc(C#N)cc2)cs1)[C@](O)(Cn1cncn1)c1cc(F)ccc1F [IVZ, Isavuconazole] . State its measured logP at 24 h.
Ans. 3.68

###

# TEST DESCRIPTION: Partition experiment, 1-octanol/buffer pH 7.4, shake flask
# Format: physicochemical
# EXPERIMENTAL PARAMETERS: 1-octanol/buffer pH 7.4, pH 7.4, 1-octanol/buffer pH 7.4; 298.15 K; read-out: logP*O/B (mole fraction scale)
MEASURE: logP at 24 h
One number for each entry.

Qu. Give the reported logP at 24 h for this compound. C[C@@H](c1nc(-c2ccc(C#N)cc2)cs1)[C@](O)(Cn1cncn1)c1cc(F)ccc1F
Ans. 3.5

###

# TEST DESCRIPTION: Solubility by isothermal saturation (shake flask) method
# Type: physicochemical
# EXPERIMENTAL PARAMETERS: buffer pH 7.4, pH 7.4, aqueous buffer, thermodynamic from solid, buffer pH 7.4; 293.15 K; read-out: solubility S·10^6
MEASURE: solubility (µM)
One number for each entry, in µM.

Qu. Identify measured solubility associated with C[C@@H](c1nc(-c2ccc(C#N)cc2)cs1)[C@](O)(Cn1cncn1)c1cc(F)ccc1F
Ans. 6.67
